This section presents molecules with their documented IC50 values.
Target: IGFR-1 (Homo sapiens, UniProt P08069)
Construct: Kinases are expressed as either kinase domains or full length constructs; made in house
Sequence (P08069 31-1367): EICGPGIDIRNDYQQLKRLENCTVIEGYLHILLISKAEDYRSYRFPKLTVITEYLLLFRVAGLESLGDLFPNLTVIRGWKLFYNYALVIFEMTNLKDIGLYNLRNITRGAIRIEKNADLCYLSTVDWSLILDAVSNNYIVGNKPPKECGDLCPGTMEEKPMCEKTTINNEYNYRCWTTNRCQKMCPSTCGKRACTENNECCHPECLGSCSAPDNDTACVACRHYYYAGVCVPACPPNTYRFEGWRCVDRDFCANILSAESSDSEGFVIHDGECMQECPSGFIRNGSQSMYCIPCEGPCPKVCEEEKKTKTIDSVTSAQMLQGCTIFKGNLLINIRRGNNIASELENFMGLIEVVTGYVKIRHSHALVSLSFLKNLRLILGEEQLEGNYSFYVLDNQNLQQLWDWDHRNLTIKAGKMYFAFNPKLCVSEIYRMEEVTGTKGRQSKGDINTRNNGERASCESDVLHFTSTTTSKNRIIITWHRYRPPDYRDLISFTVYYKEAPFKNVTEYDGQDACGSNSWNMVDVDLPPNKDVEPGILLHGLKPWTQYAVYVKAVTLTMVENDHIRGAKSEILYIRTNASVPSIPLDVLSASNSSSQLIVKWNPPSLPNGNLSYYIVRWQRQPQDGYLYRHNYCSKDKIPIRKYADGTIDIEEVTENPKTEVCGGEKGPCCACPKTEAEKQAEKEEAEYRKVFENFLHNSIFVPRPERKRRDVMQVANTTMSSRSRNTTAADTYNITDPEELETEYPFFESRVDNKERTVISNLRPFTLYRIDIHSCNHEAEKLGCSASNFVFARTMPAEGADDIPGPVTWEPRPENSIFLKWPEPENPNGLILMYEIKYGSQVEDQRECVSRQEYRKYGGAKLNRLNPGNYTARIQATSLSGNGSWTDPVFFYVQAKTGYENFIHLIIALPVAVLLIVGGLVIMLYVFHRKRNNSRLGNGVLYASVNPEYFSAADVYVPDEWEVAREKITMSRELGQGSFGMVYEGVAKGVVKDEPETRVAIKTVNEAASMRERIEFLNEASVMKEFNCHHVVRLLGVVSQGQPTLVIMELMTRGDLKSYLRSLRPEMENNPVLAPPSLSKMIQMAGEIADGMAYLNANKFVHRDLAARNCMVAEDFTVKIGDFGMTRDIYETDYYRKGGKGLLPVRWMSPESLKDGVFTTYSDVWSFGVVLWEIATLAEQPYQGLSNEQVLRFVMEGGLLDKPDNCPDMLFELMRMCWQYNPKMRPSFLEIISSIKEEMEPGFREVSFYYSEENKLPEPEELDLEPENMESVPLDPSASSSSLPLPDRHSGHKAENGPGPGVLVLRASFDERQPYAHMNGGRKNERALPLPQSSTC
Assay: Kinase inhibition assay (33P transfer), IGFR-1
Assay type: biochemical
Settings: Table 2, kinase inhibition class

Use these answered entries as a reference point.
Oc1cccc(Nc2ncnc(-c3ccccc3)n2)c1 :: > 17 µM
COc1cc(Nc2ncnc(Nc3cccc(C(=O)O)c3)n2)cc(OC)c1OC :: 1.01 to 6.04 µM
COC(=O)c1sccc1Nc1ncnc(Nc2cc(OC)c(OC)c(OC)c2)n1 :: > 10.8 µM
CCOc1ccc(Nc2ncnc(Nc3ccc(OCc4ccccc4)cc3)n2)cc1OCC :: > 9.84 µM
COc1cc(Nc2ncnc(-n3ccc4cccnc43)n2)cc(OC)c1OC :: 6.34 to 9.25 µM
COc1cc(Nc2ncnc(Nc3cc(-c4ccco4)n[nH]3)n2)cc(OC)c1OC :: < 0.977 µM

Prompt: Quick one: IC50 of COc1cc(Nc2ncnc(Nc3[nH]ncc3-c3ccccc3)n2)cc(OC)c1OC ?
Response: > 10.7 µM

Prompt: Given COc1cc(Nc2ncnc(Nc3cc(-c4ccco4)n[nH]3)n2)cc(OC)c1 , state its recorded IC50.
Response: < 1.05 µM

Prompt: # query: IC50 of entry COc1ccc(Nc2ncnc(-n3c(N)nc4ccccc43)n2)cc1OC
Response: < 1.1 µM

Prompt: Quick one: IC50 for COc1cc(Nc2ncnc(-n3c(NCCO)nc4ccccc43)n2)cc(OC)c1OC ?
Response: > 10.3 µM

Prompt: Any idea what IC50 was measured for COc1cc(Nc2ncnc(Nc3ccc(Cl)cc3)n2)cc(OC)c1OC ?
Response: < 1.03 µM

Prompt: Entry under review: COc1cc(Nc2ncnc(Nc3ccc(F)cc3)n2)cc(OC)c1OC . Reported IC50?
Response: 1.08 to 6.46 µM

Prompt: Look up IC50 for this molecule: COc1cc(Nc2ncnc(Nc3ccc(C)c(NS(C)(=O)=O)c3)n2)cc(OC)c1OC
Response: 5.21 to 7.6 µM

---

Target: IGFR-1 (Homo sapiens)
Construct: Kinases are expressed as either kinase domains or full length constructs; made in house
Assay: Kinase inhibition assay, IGFR-1 (Table 2)
Type: biochemical
Conditions: Table 2, kinase inhibition class
pIC50: −log10 of the molar value.
PARAMETER: pIC50

COc1cc(Nc2ncnc(-n3c(NCc4cccs4)nc4ccccc43)n2)cc(OC)c1OC :: < 5.04
CCOC(=O)N1CCC(Nc2ncnc(N3CCCc4cc(C)ccc43)n2)CC1 :: < 4.95

Prompt: Entry c1ccc(CNc2nc3ccccc3n2-c2ncnc(Nc3cccc(Cc4nnn[nH]4)c3)n2)cc1 : reported pIC50 = ?
Response: 5.30 to 6.08

Prompt: Recorded pIC50 for Clc1cccc(Nc2ncnc(Nc3cc(-c4ccccc4)n[nH]3)n2)c1 , please?
Response: > 5.96

Prompt: Look up pIC50: COc1ccc(Nc2ncnc(Nc3cc(-c4ccccc4)n[nH]3)n2)cc1OC
Response: > 5.99

Prompt: // returns reported pIC50 for input CCc1ccc(Nc2ncnc(-n3c(N)nc4ccccc43)n2)cc1
Response: 5.14 to 5.92

Prompt: // lookup pIC50 for CC(=O)N1CCc2cc(Nc3ncnc(N4CCCc5cc(C)ccc54)n3)ccc21
Response: < 4.95

Prompt: Entry COc1cc(Nc2ncnc(Nc3cc(-c4ccc(C(=O)NCCc5ccccc5)cc4)n[nH]3)n2)cc(OC)c1OC has what pIC50?
Response: > 6.15

Prompt: Which value of pIC50 has been reported for COc1ccc(Nc2ncnc(N3CCCc4ccc(C)cc43)n2)cc1OC in the records?
Response: < 4.92

Prompt: Entry CCC(Nc1nc2ccccc2n1-c1ncnc(Nc2cc(OC)c(OC)c(OC)c2)n1)c1ccccc1 (centres unmarked) has what pIC50?
Response: < 5.06

Prompt: What does the record list as pIC50 for O=C(O)Cc1cccc(Nc2ncnc(Nc3cccc(Br)c3)n2)c1 ?
Response: 5.22 to 6.00

Prompt: So what does the record say about pIC50 for COc1cc(Nc2ncnc(-n3c(NCc4ccccc4C)nc4ccccc43)n2)cc(OC)c1OC ?
Response: < 5.04

Prompt: Fill in: pIC50 of COc1cc(Nc2ncnc(N3c4ccccc4CC3C)n2)cc(OC)c1OC (centres unmarked) is ___
Response: 5.21 to 5.99

Prompt: Value lookup for pIC50; key = COc1cc(Nc2ncnc(-n3c(N)nc4ccccc43)n2)ccc1OCCN1CCOCC1
Response: > 6.06

Prompt: Please give the measured pIC50 for this compound: CN(c1cccc(Cl)c1)c1ncnc(NC2CCN(Cc3ccccc3)CC2)n1
Response: < 4.96

Prompt: What measured pIC50 goes with CN(c1cccc(Cl)c1)c1ncnc(Nc2ccc(Cl)c(Cl)c2)n1 ?
Response: < 4.93

Prompt: Please give the measured pIC50 for this compound: COc1cc(Nc2ncnc(-n3c(Nc4ccc(OC(F)(F)F)cc4)nc4ccccc43)n2)cc(OC)c1OC
Response: < 5.09

Values were extracted from patent US7074789B2.
